Provenance of the data: patent US9340577B2

target: HLA-A*0201 (HLA-A2.1) (Homo sapiens, UniProt P04439, D140Y/D185E/D98H/E176V/E277Q/G131W/G231S/I119V/I121R/I166T/I218V/L300P/L318F/N151K/N90K/P208A/P217A/Q86G/Q94H/R138H/R169H/T345S); assay: biochemical; format: binding
No end group written: not given here.
// boundary case: IC50 equal to 100 nM maps to F; strictly smaller maps to T

For YACFVSNLAV [Peptide 9013.0248] , is the recorded IC50 below the cut-off of 100 nM?
F

Record VLFTCEPET [Peptide 9013.0045] : is its IC50 strictly below 100 nM?
F

Lab note: IC50 threshold 100 nM. Does this sequence come in strictly under it? TQQATPGPV [Peptide 9013.0027]
F

Does the reported IC50 of the following sequence sit strictly below 100 nM? IQNDTGFYV [Peptide 9013.0035]
F

Dear colleague, could you confirm whether IC50 of GTQQATPGPV [Peptide 9013.0142] falls below 100 nM? Thanks.
F

Given GTFQQSTQEV [Peptide 9013.0175] , is recorded IC50 strictly lower than 100 nM?
F

Is IC50 strictly under 100 nM for the entry WLRLLLTASLL [Peptide 9013.0254] ?
F

Is it true that IC50 reported for KLTPLCVIL [Peptide 1516.15] is less than 100 nM?
F

Hi there! Is IC50 for RTLQQLLFI [Peptide 1525.11] below 100 nM, do you know?
F

Does the reported IC50 of VLAEAMGQV [Peptide 1539.05] stay below 100 nM?
T

Next:
I'd appreciate it if you could check whether LTFWNPPTV [Peptide 9013.0006] has IC50 smaller than 100 nM.
T

For this sequence, is IC50 lower than 100 nM? LLFWNPPTT [Peptide 9013.0007]
T

* * *

target: DR7 (DRB1*0701) (Homo sapiens, UniProt P01903+P01911, A100R/A102G/A103Q/D57E/D86V/E43K/F76Y/K127E/L162R/M171V/P40G/Q125H/Q99D/R33Q/R42Y/R54Q/S133A/S66F/T210M/V115G/Y107V/Y59L/Y89S); assay: biochemical; format: binding
No end group written: not given here.
Known log10 of IC50 of a selection of sequences
All values: log10 IC50 [nM].

# count of solved cases: 10
Return reported log10 of IC50; argument: RGIIILLLIRFRCSK [Peptide 89.0063]
2.86

Reported log10 of IC50, sequence TPEWIQRQTVLQHSF [Peptide 89.0010] : ____
2.51

Given LCVNSTASDLRTIQQ [Peptide 1543.15] , state its recorded log10 of IC50.
2.86

I would be grateful if you could share the reported log10 of IC50 for VMAIFGVNPTVAEGF [Peptide 89.0080] .
2.53

# input sequence: LIRMECALLYTAKQM [Peptide 89.0179] ; wanted: its log10 of IC50
3.87

Give the measured log10 of IC50 of MNYVVWDSIYYITET [Peptide 90.0214] .
1.74

Entry FQVIELQMALETLSK [Peptide 89.0182] : reported log10 of IC50 = ?
2.26

Report log10 of IC50 for LNTVKIPNTVSVSTG [Peptide 89.0178] please.
3.74

Could you share which log10 of IC50 value was measured for HQVVPALSVSKAKAL [Peptide 89.0169] ?
3.67

Any idea what log10 of IC50 was measured for SEVYDFVFADLRIVY [Peptide 1543.48] ?
1.71

More entries:
Returns the measured log10 of IC50 for the input sequence. Input: KNRLTVAKLMSNLLS [Peptide 89.0064]
0.45

What does the record list as log10 of IC50 for GEIYIIEEDTCTMVT [Peptide 90.0202] ?
3.82

Which log10 of IC50 value belongs to IHFLQGAIISFVNSN [Peptide 89.0089] ?
3.01

Endpoint output: log10 of IC50 of FLDVVTIPNSVQISV [Peptide 1601.40] . Value?
2.69

Reported log10 of IC50 for TVEVQFDGDICNTMH [Peptide 90.0167] : what is it?
2.40

Tell me the measured log10 of IC50 of QKCFKKKGITVTVQY [Peptide 90.0026] , please.
3.64

What does the record list as log10 of IC50 for LIRMECAIMYTARQM [Peptide 90.0022] ?
2.67

Entry under review: LNVLKTSNAKAAMLA [Peptide 89.0003] . Reported log10 of IC50?
1.30

Which log10 of IC50 value is on record for TPEWIDRLTVLQHSF [Peptide 89.0069] ?
3.72

Fill in the blank: the reported log10 of IC50 of RVCLLFYSKVRKYRY [Peptide 1543.54] is ____.
2.37

Can you look up the measured log10 of IC50 of RNLVDGNPISLDRKH [Peptide 89.0137] for me?
3.87

I have this sequence here, EISFAGIVTKLPTAN [Peptide 89.0174] , and I need its recorded log10 of IC50.
3.89
